# measured_target: T1, Soluble IGF-1R (sIGF-1R), R&D Systems Cat. # 391-GR/CF (UniProt P08069 31-935, limits assumed)
# T1 construct: extracellular domain
# protocol_text: phage ELISA
Measured Ratio over Background accompanies every entry in the list below.

>>> reported_measurement("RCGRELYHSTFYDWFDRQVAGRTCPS [H2CA-1-A7-IGFR]")
2.2
>>> reported_measurement("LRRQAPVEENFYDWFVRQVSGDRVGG [H2CA-3-D7-IGFR]")
3
>>> reported_measurement("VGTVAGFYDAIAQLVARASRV [20E2A-3-C7-IGFR]")
5.4
>>> reported_measurement("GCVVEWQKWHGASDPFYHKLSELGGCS [B6Hα-3-F10-IR]")
8.8
>>> reported_measurement("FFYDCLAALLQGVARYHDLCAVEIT [20C-4-C7-IGFR]")
28

// Ratio over Background lookup, key: AICDAGFHEHFYDWFALQVSDCGRQS [H2CA-2-B11-IGFR]
4.6

# input binder: RGCNDDGGKGWSDDPFYHKLSELICGG [B6Hα-1-A2-IR] ; wanted: its Ratio over Background
14.6

Suppose we examine the binder RGIVAMVEATEVGSDHDPFYHKLSELVQGS [B6Hα-2-C7-IR] ; what Ratio over Background value has been reported?
6.7

Request the reported Ratio over Background associated with EGSGFYGYFFSLLGLQG [NNRPγ-4-A9-IR]
10
